Method Description: Kinetic solubility of the compound in pION buffer at 250 uM after 18 hrs at pH 5
Format: physicochemical
Run Conditions: read-out: Kinetic_solubility
Endpoint: solubility kinetic at 18 h, 250 µM

Reported solubility kinetic at 18 h, 250 µM of COc1cc2nc(C3CC3)nc(N3CCN(c4ccccc4OC)CC3)c2cc1OC : > 297 µM

* * *

Method Description: Hepatotoxicity in human Fa2N-4 cells after 24 hrs by luminescence assay
Format: toxicity, cell-based
Run Conditions: fa2n-4, 24 h, read-out: LC50 (the source's name)
Endpoint: CC50 (µM)
Write the answer as a number in µM, unit excluded.

Reported CC50 of COc1cc2nc(C3CC3)nc(N3CCN(c4ccccc4OC)CC3)c2cc1OC : 29.6

* * *

Tested System: UniProt:P30989
Method Description: Antagonist activity at NTR1 (unknown origin) expressed in human U2OS cells coexpressing beta-arrestin assessed as inhibition of ML314-induced effect by GFP reporter gene assay
Endpoint: pIC50
FYI, pIC50 means -log10 of a concentration in mol per litre.

Reported pIC50 of COc1cccc(OC)c1-c1cc(C(=O)NC2(C(=O)O)C3CC4CC(C3)CC2C4)nn1-c1ccc(C(=O)N(C)CCCN(C)C)cc1C(C)C (stereo unspecified) : 7.30

* * *

Tested System: Neurotensin receptor type 1 (Homo sapiens, UniProt P30989)
Sequence (P30989 whole entry): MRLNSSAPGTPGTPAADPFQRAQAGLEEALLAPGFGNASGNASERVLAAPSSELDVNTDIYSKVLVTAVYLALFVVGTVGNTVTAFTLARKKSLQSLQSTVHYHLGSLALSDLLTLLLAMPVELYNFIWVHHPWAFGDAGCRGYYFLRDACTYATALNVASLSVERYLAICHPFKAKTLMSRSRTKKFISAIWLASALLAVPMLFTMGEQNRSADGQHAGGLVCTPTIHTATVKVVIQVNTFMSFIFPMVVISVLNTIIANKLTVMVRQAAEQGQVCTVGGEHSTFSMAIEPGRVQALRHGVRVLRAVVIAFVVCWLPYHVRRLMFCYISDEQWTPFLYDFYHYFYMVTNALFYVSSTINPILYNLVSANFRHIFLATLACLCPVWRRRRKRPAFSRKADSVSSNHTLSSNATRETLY
Method Description: Agonist activity at NTR1 (unknown origin) expressed in CHO cells assessed as stimulation of calcium flux
Type: functional, cell-based
pEC50: −log10 of the molar value.
Endpoint: pEC50

Reported pEC50 of COc1cc2nc(C3CC3)nc(N3CCN(c4ccccc4OC)CC3)c2cc1OC : < 4.10

* * *

Method Description: Effective permeability of the compound at 50 uM after 30 mins at donor pH 7.4 and acceptor pH 7.4 by PAMPA
Type: ADME
Run Conditions: pH 7.4, 0.5 h
Endpoint: Peff (×10⁻⁶ cm/s)
Write the answer as a number in ×10⁻⁶ cm/s, unit excluded.

Reported Peff of COc1cc2nc(C3CC3)nc(N3CCN(c4ccccc4OC)CC3)c2cc1OC : 2090

* * *

Method Description: Effective permeability of the compound at 50 uM after 30 mins at donor pH 6.2 and acceptor pH 7.4 by PAMPA
Type: ADME
Run Conditions: pH 6.2, 0.5 h
Endpoint: Peff (×10⁻⁶ cm/s)
Write the answer as a number in ×10⁻⁶ cm/s, unit excluded.

Reported Peff of COc1cc2nc(C3CC3)nc(N3CCN(c4ccccc4OC)CC3)c2cc1OC : 2140

* * *

Tested System: Neurotensin receptor type 1 (Homo sapiens, UniProt P30989)
Method Description: Agonist activity at NTR1 (unknown origin) expressed in human U2OS cells coexpressing beta-arrestin by GFP reporter gene assay
Assay type: cell-based
Endpoint: EC50 (µM)
Write the answer as a number in µM, unit excluded.

Reported EC50 of CCOc1cc2c(N3CCN(c4ccccc4[N+](=O)[O-])CC3)nc(-c3ccccc3)nc2cc1OC : 75

Reported EC50 of COc1cc2nc(C(C)C)nc(N3CCN(c4ccccc4OC)CC3)c2cc1OC : 8

Reported EC50 of COc1cc2nc(CC3CC3)nc(N3CCN(c4ccccc4OC)CC3)c2cc1OC : 14

Further cases:
Reported EC50 of COc1cc2nc(C3CCC3)nc(N3CCN(c4ccccn4)CC3)c2cc1OC : 26

Reported EC50 of COc1cc2nc(C3CCC3)nc(N3CCN(c4ccccc4)CC3)c2cc1OC : 12

* * *

Tested System: UniProt P35372
Sequence (P35372 whole entry): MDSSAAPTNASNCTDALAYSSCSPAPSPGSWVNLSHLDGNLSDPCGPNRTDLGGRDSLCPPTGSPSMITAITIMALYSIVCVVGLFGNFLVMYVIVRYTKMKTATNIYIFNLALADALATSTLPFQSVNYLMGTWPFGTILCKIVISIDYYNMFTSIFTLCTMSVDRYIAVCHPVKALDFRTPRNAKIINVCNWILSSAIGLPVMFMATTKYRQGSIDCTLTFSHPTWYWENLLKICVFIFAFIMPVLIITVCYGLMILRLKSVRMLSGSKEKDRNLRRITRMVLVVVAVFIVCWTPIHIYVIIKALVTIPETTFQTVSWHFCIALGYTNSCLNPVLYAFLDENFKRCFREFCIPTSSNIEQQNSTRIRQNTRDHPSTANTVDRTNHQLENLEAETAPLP
Endpoint: Ki
Write down the value, and be sure its unit follows.

Form field Ki for item COc1cc2nc(C3CC3)nc(N3CCN(c4ccccc4OC)CC3)c2cc1OC on UniProt P35372: 1540 nM

* * *

Method Description: Kinetic solubility of the compound in pION buffer at 250 uM after 18 hrs at pH 7.4
Assay type: physicochemical
Run Conditions: read-out: Kinetic_solubility
Endpoint: solubility kinetic at 18 h, 250 µM

Reported solubility kinetic at 18 h, 250 µM of COc1cc2nc(C3CC3)nc(N3CCN(c4ccccc4OC)CC3)c2cc1OC : 1.2 µM

* * *

Tested System: UniProtKB P30536
Sequence (P30536 whole entry): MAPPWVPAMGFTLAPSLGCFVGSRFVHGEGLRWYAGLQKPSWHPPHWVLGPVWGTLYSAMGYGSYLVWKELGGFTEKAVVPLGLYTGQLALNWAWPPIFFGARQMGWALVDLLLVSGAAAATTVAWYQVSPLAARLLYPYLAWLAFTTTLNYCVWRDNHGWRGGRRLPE
Endpoint: Ki (nM)
Write the answer as a number in nM, unit excluded.

Form field Ki for item COc1cc2nc(C3CC3)nc(N3CCN(c4ccccc4OC)CC3)c2cc1OC on UniProtKB P30536: 2540

* * *

Tested System: 5-hydroxytryptamine receptor 7 (Homo sapiens)
Sequence (P34969 whole entry): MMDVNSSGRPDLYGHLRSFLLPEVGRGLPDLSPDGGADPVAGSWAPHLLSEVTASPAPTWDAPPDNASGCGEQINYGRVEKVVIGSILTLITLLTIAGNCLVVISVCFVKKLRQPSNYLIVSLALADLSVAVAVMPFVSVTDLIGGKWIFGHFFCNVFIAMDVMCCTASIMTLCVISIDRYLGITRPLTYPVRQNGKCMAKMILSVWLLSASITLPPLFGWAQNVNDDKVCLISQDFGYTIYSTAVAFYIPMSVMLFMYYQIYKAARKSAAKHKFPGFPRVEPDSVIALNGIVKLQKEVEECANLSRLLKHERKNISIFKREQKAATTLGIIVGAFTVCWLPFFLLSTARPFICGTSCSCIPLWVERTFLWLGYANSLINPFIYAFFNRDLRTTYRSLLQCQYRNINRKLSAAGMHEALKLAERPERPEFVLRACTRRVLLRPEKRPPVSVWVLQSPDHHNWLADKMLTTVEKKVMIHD
Endpoint: Ki (nM)
Write the answer as a number in nM, unit excluded.

Reported Ki of COc1cc2nc(C3CC3)nc(N3CCN(c4ccccc4OC)CC3)c2cc1OC : 930

Reference source for all entries: ChEMBL document CHEMBL2429761
